Test system: A. baumannii clinical isolate LAC 17
Assay: Antibiotic susceptibility profile
Format: cell-based, Acinetobacter baumannii
Design: key: Resistance; Intermediate; Susceptible
Excerpt: We obtained over thirty clinical isolates of A. baumannii from nosocomial infections in New York City and Los Angeles. […] Only antibiotics with breakpoints for A. baumannii were used. […] Isolates LA 01 to 20 were acquired from Los Angels County while NY-A to NY-H were obtained from New York City. Antibiotic susceptibility profiles of clinical isolates of A. baumannii and reference strains. R, I, and S denote Resistance, Intermediate and Susceptible, respectively. […]
measuredProperty: Antibiotic susceptibility

Example entries and their recorded answers appear below.
- COc1c(N2CCNC(C)C2)c(F)cc2c(=O)c(C(=O)O)cn(C3CC3)c12 (centres unmarked) [GAT, Gatifloxacin]: R
- CO/N=C(\C(=O)N[C@@H]1C(=O)N2C(C(=O)[O-])=C(C[N+]3(C)CCCC3)CS[C@H]12)c1csc(N)n1 [FEP, Cefepime]: R
- CO/N=C(\C(=O)N[C@@H]1C(=O)N2C(C(=O)O)=C(CSc3nc(=O)c(=O)[nH]n3C)CS[C@H]12)c1csc(N)n1 [CRO, Ceftriaxone]: R
- CO/N=C(\C(=O)N[C@@H]1C(=O)N2C(C(=O)O)=C(COC(C)=O)CS[C@H]12)c1csc(N)n1 [CTX, Cefotaxime]: R
- C[C@H]1c2cccc(O)c2C(=O)C2=C(O)[C@]3(O)C(=O)C(C(N)=O)=C(O)[C@@H](N(C)C)[C@@H]3[C@@H](O)[C@@H]21 [DOX, Doxycycline]: S
- C[C@@H](O)[C@H]1C(=O)N2C(C(=O)O)=C(S[C@@H]3CN[C@H](C(=O)N(C)C)C3)[C@H](C)[C@H]12 [MEM, Meropenem]: S
- CC(C)(O/N=C(\C(=O)N[C@@H]1C(=O)N2C(C(=O)[O-])=C(C[n+]3ccccc3)CS[C@H]12)c1csc(N)n1)C(=O)O [CAZ, Ceftazidime]: R

# next compound below
// query What measured Antibiotic susceptibility is associated with CN(C)c1ccc(O)c2c1C[C@H]1C[C@H]3[C@H](N(C)C)C(O)=C(C(N)=O)C(=O)[C@@]3(O)C(O)=C1C2=O [MIN, Minocycline] on A. baumannii clinical isolate LAC 17?
// result S
